system: MCF7; assay: Cytotoxicity against human MCF7 cells after 72 hrs by MTT assay; type: functional, cell-based
OUTCOME_MEASURE: Activity

### Prompt What Activity value was documented for this molecule, C=C(C)[C@@H]1CC[C@]2(C(=O)OCCN3CCN(C(=O)CCCCCCCC)CC3)CC[C@]3(C)[C@H](CC[C@@H]4[C@@]5(C)CCC(=O)C(C)(C)[C@@H]5CC[C@]43C)[C@@H]12 ?
### Response Dose-dependent effect

### Prompt What about this molecule? C=C(C)[C@@H]1CC[C@]2(C(=O)OCCCCN3CCCC3)CC[C@]3(C)[C@H](CC[C@@H]4[C@@]5(C)CCC(=O)C(C)(C)[C@@H]5CC[C@]43C)[C@@H]12
### Response Dose-dependent effect

### Prompt What about this molecule? C=C(C)[C@@H]1CC[C@]2(C(=O)OCCN(CC)CC)CC[C@]3(C)[C@H](CC[C@@H]4[C@@]5(C)CCC(=O)C(C)(C)[C@@H]5CC[C@]43C)[C@@H]12
### Response Dose-dependent effect

Origin of measurements: ChEMBL document CHEMBL3414513
